Values were extracted from ChEMBL document CHEMBL1201862.

Target: Cytochrome P450 3A4 (Homo sapiens, UniProt P08684);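 further: confirmatory qHTS run detecting inhibitors and substrates of CYP3A4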
Sequence (P08684 whole entry): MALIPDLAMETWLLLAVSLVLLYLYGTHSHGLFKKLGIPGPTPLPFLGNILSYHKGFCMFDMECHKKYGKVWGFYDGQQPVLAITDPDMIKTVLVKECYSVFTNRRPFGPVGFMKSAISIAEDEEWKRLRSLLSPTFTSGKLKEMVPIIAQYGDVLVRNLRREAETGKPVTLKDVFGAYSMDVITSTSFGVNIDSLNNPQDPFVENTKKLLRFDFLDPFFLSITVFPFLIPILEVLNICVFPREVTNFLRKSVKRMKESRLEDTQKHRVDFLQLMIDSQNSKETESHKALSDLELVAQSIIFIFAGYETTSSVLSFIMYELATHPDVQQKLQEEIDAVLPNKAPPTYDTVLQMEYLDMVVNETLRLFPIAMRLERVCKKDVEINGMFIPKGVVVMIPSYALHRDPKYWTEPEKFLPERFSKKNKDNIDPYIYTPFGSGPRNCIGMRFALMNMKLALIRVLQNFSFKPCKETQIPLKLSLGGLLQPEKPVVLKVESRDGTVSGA
Details: Potency
parameterMeasured: AC50

Cytochrome P450 3A4 (Homo sapiens, UniProt P08684) AC50 of C=CCc1cccc(C2C(C)CCC3C(=O)N4C(CCC(C)C4c4cccc(CC=C)c4)C(=O)N32)c1 (centres undefined) is 0.2 µM (inconclusive)

Cytochrome P450 3A4 (Homo sapiens, UniProt P08684) AC50 of O=c1cc(-c2ccccc2O)oc2ccc3ccccc3c12 is 31.6 µM (inconclusive)

Cytochrome P450 3A4 (Homo sapiens, UniProt P08684) AC50 of CC1(C)CC[C@]2(C(=O)O)C(O)C[C@@]3(C)C(=CCC4[C@@]5(C)CCC(O)C(C)(C)C5CC[C@@]43C)C2C1 (some centres undefined) is 15.8 µM (inconclusive)

Cytochrome P450 3A4 (Homo sapiens, UniProt P08684) AC50 of CC1=C(/C=C/C(C)=C/C=C/C(C)=C/C=O)C(C)(C)CCC1 is 12.6 µM (inconclusive)

Cytochrome P450 3A4 (Homo sapiens, UniProt P08684) AC50 of COc1ccc(C2CC(=O)c3ccc(OC)cc3O2)cc1 (centres undefined) is 20 µM (inconclusive)

Cytochrome P450 3A4 (Homo sapiens, UniProt P08684) AC50 of CCCn1c(-c2ccc(F)cc2)nc2c(NCC3CCCN3CC)nc(C)nc21 (centres undefined) is 15.8 µM (inconclusive)

Cytochrome P450 3A4 (Homo sapiens, UniProt P08684) AC50 of CC(=O)OC1CC2C(C)(C)C(O)CCC2(C)C2CC[C@]3(C)C(=CC(=O)OC3c3ccoc3)C12C (some centres undefined) is 39.8 µM (inconclusive)

Cytochrome P450 3A4 (Homo sapiens, UniProt P08684) AC50 of O=C(/C=C(\O)c1ccccc1)c1ccccc1O [2',beta-DIHYDROXYCHALCONE] is 15.8 µM (inconclusive)

Cytochrome P450 3A4 (Homo sapiens, UniProt P08684) AC50 of COC(=O)NC(/C(C(=O)OC)=C(\C)NCc1ccccc1)c1ccc2ccccc2c1 (centres undefined) is 3.98 µM (inconclusive)

----------
Test: human group III sPLA2 inhibitors, dose response, biochemical, QFRET, IC50 (AID 743457);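 further: green fluorescence rise as the enzyme cleaves BODIPY PC-A2 in liposomes; potency for inhibition of the enzyme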
Calls of active or inactive are those of the source.
parameterMeasured: IC50

Just so you know, measured IC50 for COc1ccc(NC(=O)NNC(=O)c2ccc3ccccc3c2O)cc1OC came out at > 122 µM (inactive)

Just so you know, measured IC50 for O=C(NNC(=O)c1ccc2ccccc2c1O)c1ccccc1Cl came out at > 122 µM (inactive)

Just so you know, measured IC50 for C=CCNC(S)=NNc1nc(O)c2c(n1)-c1ccccc1CC21CCCCC1 came out at 73.1 µM (inactive)

Just so you know, measured IC50 for CCN=C(S)NN=C(S)NCc1ccccc1 came out at > 122 µM (inactive)

Just so you know, measured IC50 for Cn1ccc2c(N3CCCCCCC3)cc3c(c21)C1CCC3O1 (configuration not stated) came out at > 122 µM (inactive)

Just so you know, measured IC50 for CCCCNC(=S)N/N=C/c1cccc(OCC)c1O came out at > 122 µM (inactive)

Just so you know, measured IC50 for CC(C)c1cc(C(=O)NN=C(S)NCc2ccco2)c(O)c(C(C)C)c1 came out at 18.8 µM (inactive)

----------
Assay: MC4R antagonists, dose response, counter-screen for LGR2 antagonist project, cell-based, plate reader, cherry pick (AID 743444);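 further: transfected HEK 293 cells stimulated with alpha-MSH peptide; potency of inhibitors of the alpha-MSH evoked signal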
Type: functional
Active and inactive are the calls of the source.
For each entry below, report its AC50 value.

Just so you know, measured AC50 for COCCn1c(C)cc(C(=O)CSc2nc3ccccc3s2)c1C came out at 6.46 µM (active)

Just so you know, measured AC50 for O=C(Nc1ccc(-c2nc3ccccc3[nH]2)cc1)C1CCCO1 (centres undefined) came out at 6.98 µM (active)

Just so you know, measured AC50 for CC(=O)c1ccc(Nc2nc(-c3sc(C)nc3C)cs2)cc1 came out at 34 µM (active)

Just so you know, measured AC50 for COc1cc(SC)ccc1C(=O)Nc1ccc(Cl)cn1 came out at 1.45 µM (active)

----------
Molecular target: UniProt:Q03530
Sequence (Q03530 whole entry): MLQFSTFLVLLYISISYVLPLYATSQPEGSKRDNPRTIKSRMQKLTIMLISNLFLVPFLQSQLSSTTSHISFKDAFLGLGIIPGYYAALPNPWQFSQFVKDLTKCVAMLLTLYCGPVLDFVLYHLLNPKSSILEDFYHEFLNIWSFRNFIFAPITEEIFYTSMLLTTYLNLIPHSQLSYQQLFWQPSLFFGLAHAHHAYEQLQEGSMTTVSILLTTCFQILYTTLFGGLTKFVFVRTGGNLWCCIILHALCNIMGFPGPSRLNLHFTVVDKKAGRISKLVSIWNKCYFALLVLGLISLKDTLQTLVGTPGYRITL
Assay type: biochemical
Activity calls are given as the source filed them.
parameterMeasured: AC50

Just so you know, measured AC50 for O=C(Nc1cccc(-c2cn3ccccc3n2)c1)C1CC1 came out at 31.9 µM (active)

Just so you know, measured AC50 for CCOC(=O)c1cc(-c2ccccc2)sc1NC(=O)C(C)Sc1nnnn1C (stereo not drawn) came out at 7.54 µM (active)

Just so you know, measured AC50 for CN(C(=O)c1ccc2c(c1)SC1=NS(=O)(=O)CCN12)C(c1ccccc1)c1ccccc1 came out at 2.1 µM (active)

Just so you know, measured AC50 for CCOC(=O)c1[nH]c2ccc(OC)cc2c1NC(=O)CN1CCC2(CC1)OCCO2 came out at 67.8 µM (active)

Just so you know, measured AC50 for O=C(C[n+]1cc2ccccc2c2ccccc21)c1ccccc1 came out at 5.91 µM (active)

Just so you know, measured AC50 for COc1cccc(C(=O)Nc2nnc(SCC(=O)NC3CCCC3)s2)c1 came out at 52.3 µM (active)

Just so you know, measured AC50 for CCCCOc1ccc(-c2cc(C(F)(F)F)c(C#N)c(SCC(=O)O)n2)cc1 came out at 25.4 µM (active)

Just so you know, measured AC50 for Cc1cccc(N2CCc3c2nc2ccc(Br)cc2c3N)c1 came out at 8.82 µM (active)

----------
Target: UniProt:Q9GZV3
Sequence (Q9GZV3 whole entry): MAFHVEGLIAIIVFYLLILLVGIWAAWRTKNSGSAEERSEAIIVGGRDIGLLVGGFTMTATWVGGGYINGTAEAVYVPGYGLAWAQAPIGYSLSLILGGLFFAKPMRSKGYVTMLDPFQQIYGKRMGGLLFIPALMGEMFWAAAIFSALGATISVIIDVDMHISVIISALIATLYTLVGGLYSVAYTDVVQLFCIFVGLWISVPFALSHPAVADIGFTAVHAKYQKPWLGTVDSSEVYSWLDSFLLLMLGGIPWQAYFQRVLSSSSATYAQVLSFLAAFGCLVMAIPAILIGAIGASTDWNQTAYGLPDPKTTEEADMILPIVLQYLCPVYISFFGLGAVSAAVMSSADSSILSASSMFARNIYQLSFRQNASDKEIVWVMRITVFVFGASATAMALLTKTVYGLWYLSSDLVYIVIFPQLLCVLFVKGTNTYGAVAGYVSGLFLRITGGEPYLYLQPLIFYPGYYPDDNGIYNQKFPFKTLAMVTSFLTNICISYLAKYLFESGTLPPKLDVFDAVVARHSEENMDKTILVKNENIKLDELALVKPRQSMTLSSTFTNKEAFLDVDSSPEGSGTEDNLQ
Experiment: CHT inhibitors, dose response, cell-based, 5-point CRC, membrane potential dye (AID 504840)
Format: functional
Active and inactive are the calls of the source.
For each entry below, report its IC50 value.

Just so you know, measured IC50 for Cc1ccc(C(=O)Nc2ccc(S(=O)(=O)NC3=NCCCCC3)cc2)c(C)c1 came out at 10.8 µM (active)

Just so you know, measured IC50 for COc1ccccc1Nc1ncnc2ccc(C)cc12 came out at 13.8 µM (active)

Just so you know, measured IC50 for CC(/C=C1\SC(=S)N(NS(=O)(=O)c2ccccc2)C1=O)=C\c1ccccc1 came out at 9.12 µM (active)

Just so you know, measured IC50 for Cc1ccc(Nc2nc(CSc3nnc(-c4ccc(F)cc4)n3C)cs2)cc1 came out at 15.8 µM (active)

Just so you know, measured IC50 for COc1ccc(C2=Nn3c(nnc3-c3ccccc3OC)SC2)cc1OC came out at 1.15 µM (active)

Just so you know, measured IC50 for CCCCN(CCCC)CCNC(=O)c1cn(CC)c2ccc(S(=O)(=O)N3CCc4ccccc4C3)cc2c1=O came out at 4.07 µM (active)

Just so you know, measured IC50 for Sc1n[nH]c(-c2cc(Cl)cc(Cl)c2)n1 came out at 10.5 µM (active)

Just so you know, measured IC50 for CC(C)N(C)CCOC(=O)C1COc2ccccc2O1 (centres undefined) came out at 13.8 µM (active)

Just so you know, measured IC50 for O=C(c1cc2c(nc1O)CCCC2)N1CCc2c([nH]c3ccccc23)C1c1ccccc1F (centres undefined) came out at 19.1 µM (active)

Just so you know, measured IC50 for O=C(CSc1nc2ccccc2[nH]1)c1ccc2c(c1)OCO2 came out at 10 µM (active)

Just so you know, measured IC50 for c1ccc2c(CN3CCCCCCC3)c[nH]c2c1 came out at 12.6 µM (active)

Just so you know, measured IC50 for CCCc1cc(Nc2c(C)n(C)n(-c3ccccc3)c2=O)n2c(nc3ccccc32)c1C#N came out at 13.8 µM (active)

Just so you know, measured IC50 for CCN(CC(=O)Nc1cccc(OC)c1)c1ncnc2sc(C)c(C)c12 came out at 7.24 µM (active)

Just so you know, measured IC50 for Cn1c(N2CCOCC2)c(/C=N/OC(=O)c2ccc(F)cc2)c2ccccc21 came out at 15.9 µM (active)

----------
Molecular target: Endoribonuclease toxin MazF (Escherichia coli K-12, UniProt P0AE70)
Sequence (P0AE70 whole entry): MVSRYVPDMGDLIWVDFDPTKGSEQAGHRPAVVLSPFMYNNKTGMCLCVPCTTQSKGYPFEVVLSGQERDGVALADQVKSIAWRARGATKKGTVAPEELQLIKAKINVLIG
Experiment: fluorescent RNA oligo signal without MazF, dose response, counter-screen for MazEF activator project, biochemical, fluorescence, single-stranded RNase substrate (AID 588502)
Type: functional
Calls of active or inactive are those of the source.
parameterMeasured: EC50

Just so you know, measured EC50 for COCc1n[nH]c2c1C(c1cc(OC)c(O)c(OC)c1)C(C#N)=C(N)O2 (stereo not drawn) came out at > 99 µM (inactive)

Just so you know, measured EC50 for CC1(C)CC(=O)C(=NNc2cc3c(cc2[N+](=O)[O-])OCCO3)C(=O)C1 came out at 29.6 µM (inactive)

Just so you know, measured EC50 for O=c1cc(-c2ccc(O)c(O)c2)oc2c1ccc1ccccc12 came out at > 99 µM (inactive)

Just so you know, measured EC50 for Oc1nc2ccccc2nc1/C=C/c1ccc(F)cc1 came out at > 99 µM (inactive)

Just so you know, measured EC50 for O=C1c2ccccc2C(Nc2ccc(S(=O)(=O)N3CCCCCC3)cc2)N1c1ccccn1 (stereo not drawn) came out at > 99 µM (inactive)

Just so you know, measured EC50 for COc1ccc(-c2ccc(/C=C3/C(=N)N4C(C)=CSC4=NC3=O)o2)c([N+](=O)[O-])c1 came out at 29 µM (inactive)

Just so you know, measured EC50 for COc1ccc2nc3ccccc3nc2c1NC(=O)c1ccc(Cl)cc1Cl came out at 27.6 µM (inactive)

Just so you know, measured EC50 for CC(=O)c1ccc(N2CCN(C(=O)c3cc4c(C)nc5ccccc5c4o3)CC2)cc1 came out at 30.7 µM (inactive)
